System: C. krusei
assay-info: Antifungal Activity Assay (broth microtiter MIC), C. krusei
Format: cell-based, Candida krusei
reported-conditions: Pichia kudriavzevii, ATCC6258, 48 h, Table 3b (additional results); ATCC 6258; 3 replicates; MIC recorded at 48 h; read-out: MIC, C. krusei ATCC 6258
readout: MIC

Answered examples (8):
COc1ccc(Cl)cc1[C@H](Cn1c(=O)n(C(C)(C)C(=O)NC2CCC2)c(=O)c2c(C)c(-n3nccn3)sc21)OC1CCOCC1 [Compound I-228]; 0.06 to 0.249 µg/mL
Cc1c(-n2nccn2)sc2c1c(=O)n(C(C)(C)C(=O)NC(C)C)c(=O)n2C[C@H](OCC(C)(C)O)c1cc(F)ccc1O [Compound I-236]; 2.01 to 4 µg/mL
COc1ccccc1[C@H](Cn1c(=O)n(C(C)(C)C(N)=O)c(=O)c2c(C)c(-n3nccn3)sc21)OC1CCOCC1 [Compound I-14]; 1.01 to 2 µg/mL
COc1ccc(F)cc1[C@H](Cn1c(=O)n(C(C)C(=O)NC(C)C)c(=O)c2c(C)c(-n3nccn3)sc21)OCC(C)(C)O (stereo partly shown) [Compound I-132]; 2.01 to 4 µg/mL
Cc1c(-n2nccn2)sc2c1c(=O)n(C(C)(C)C(=O)NC(C)C)c(=O)n2C[C@H](OCCC#N)c1ccccc1O [Compound I-271]; 2.01 to 4 µg/mL
COc1ccc(F)cc1[C@H](Cn1c(=O)n([C@@H](C)C(=O)NC(C)C)c(=O)c2c(C)c(-n3nccn3)sc21)OCC(C)(C)C#N [Compound I-211]; 2.01 to 4 µg/mL
COc1ccc(F)cc1[C@H](Cn1c(=O)n(C(C)(C)C(=O)O)c(=O)c2c(C)c(-n3nccn3)sc21)OC(C)C [Compound I-93]; 1.01 to 2 µg/mL
COc1ccc(F)cc1CCn1c(=O)n(C(C)(C)C(=O)NC(C)C)c(=O)c2c(C)c(-n3nccn3)sc21 [Compound I-266]; 0.25 to 1 µg/mL

Consider COc1ccc(F)cc1[C@H](Cn1c(=O)n(C(C)(C)C(=O)NC(C)(C)C)c(=O)c2c(C)c(-n3nccn3)sc21)OCCCO [Compound I-160] . Its measured MIC is 1.01 to 2 µg/mL

The molecule COc1ccc(F)cc1[C@H](Cn1c(=O)n(C(C)(C)C(=O)N2CCCC2)c(=O)c2c(C)c(-n3nccn3)sc21)OCC(C)C [Compound I-12] showed MIC equal to 0.25 to 1 µg/mL

Per the record, COc1ccc(F)cc1[C@H](Cn1c(=O)n([C@H](C)C(=O)N(C)C(C)C)c(=O)c2c(C)c(-n3nccn3)sc21)O[C@H]1CC[C@@H](O)CC1 [Compound I-166] has MIC of 1.01 to 2 µg/mL

MIC recorded for this molecule, COc1ccccc1[C@H](Cn1c(=O)n([C@@H](C)C(=O)N(C)C(C)C)c(=O)c2c(C)c(-n3nccn3)sc21)OCCC#N [Compound I-206] , is 2.01 to 4 µg/mL

Record C=CCNC(=O)C(C)(C)n1c(=O)c2c(C)c(-n3nccn3)sc2n(C[C@H](OC(C)C)c2cc(F)ccc2OC)c1=O [Compound I-120] , field MIC: 0.25 to 1 µg/mL

Entry source: patent US10800791B2
